Kindly supply the reported scaled lipid accumulation score values for the records listed here.
Test system: primary human hepatic stellate cells (donor 1)
Experiment: scaled lipid accumulation score (0 = DMSO-like, 1 = nortriptyline-like); higher = stronger HSC inactivation (lipid re-accumulation), active = hit call of the paper
Conditions: library stock concentration: 1 mM; 48 h
Structures can show the parent of a compound that is named as a salt. The campaign covered roughly 5,800 compounds. About 620 (11%) showed activity. The sample holds actives, similar compounds and a random draw of the others, so the mix is not that of the screen.

molecule=O=C(NCCN1CCC2(CC1)C(=O)NCN2c1ccccc1)c1ccc2ccccc2c1 result="≤ 0 (inactive)"
molecule=O=C1C2CCN(CC2)C1(CO)CO result="≤ 0 (inactive)"
molecule=CCN(CC)CCO[C@H]1CC[C@@]2(C)C(=CC[C@@H]3[C@@H]2CC[C@]2(C)C(=O)CC[C@@H]32)C1 result="0.116 (inactive)"
molecule=CCCCCCCC/C=C\CCCCCCCC(=O)OC[C@@H](COP(O)(O)=S)OC result="0.084 (inactive)"
molecule=CCCCCCCCCCCCCCCCSP(=O)([O-])OCC[N+](C)(C)C result="≤ 0 (inactive)"
molecule="CCCCCCCCCCCCCCCC(=O)OCC(COP(=O)([O-])OCC[N+](C)(C)C)OC(C)=O (configuration not stated)" result="0.014 (inactive)"
molecule=CN/C(=N\S(=O)(=O)c1ccc(Cl)cc1)N1C[C@H](c2ccccc2)C(c2ccc(Cl)cc2)=N1 result="≤ 0 (inactive)"
molecule="c1cc2ccsc2c(N2CCNCC2)n1 [7-Piperazin-1-yl-thieno[2,3-c] Pyridine (hydrochloride)]" result="≤ 0 (inactive)"

// each listed molecule needs a value for scaled lipid accumulation score
1. COc1ccc2cc(C(C#N)OC(=O)OCC3OC3c3ccccc3)ccc2c1 (configuration not stated)
2. CC(N)Cc1c[nH]c2ccc(OCc3cccs3)cc12 (configuration not stated)
3. CCCCC/C=C\C/C=C\C/C=C\C/C=C\CCCC(=O)NCCOP(=O)(O)O [Arachidonoyl Ethanolamide Phosphate]

0.009 (inactive)
0.315 (inactive)
≤ 0 (inactive)

// each listed molecule needs a value for scaled lipid accumulation score
1. CCCCC/C=C\C/C=C\C/C=C\C/C=C\CCCC(=O)NCCS(=O)(=O)O
2. CCCCC/C=C\C/C=C\C/C=C\C/C=C\CCCC(=O)NCCF [Arachidonoyl-2'-Fluoroethylamide]
3. CCCCC/C=C\C/C=C\C/C=C\C/C=C\CCCC(=O)Nc1cccc(O)c1 [N-(3-hydroxyphenyl)-Arachidonoyl amide]

1: 0.01 (inactive); 2: ≤ 0 (inactive); 3: 0.053 (inactive)

// each listed molecule needs a value for scaled lipid accumulation score
1. CCCCCC(=O)N[C@H]1CCOC1=O
2. C=C(C)[C@@H]1CCC(C)=C[C@H]1c1c(O)cc(O)cc1CCCCC
3. CN[C@@H]1C[C@H]2O[C@@](C)([C@@H]1OC)n1c3ccccc3c3c4c(c5c6ccccc6n2c5c31)C(=O)NC4

["≤ 0 (inactive)", "≤ 0 (inactive)", "0.546 (active)"]
